measured.property: melting point

-- ask Record request: melting point value, item COc1cc([C@@H]2c3cc4c(cc3[C@@H](NC(=O)CN3CCOCC3)[C@H]3COC(=O)[C@H]23)OCO4)cc(OC)c1O [Compound 12d]
-- reply 109 to 111 °C

-- ask Same thing, different compound: COc1cc([C@@H]2c3cc4c(cc3[C@@H](NC(=O)CNCCc3ccc(O)cc3)[C@H]3COC(=O)[C@H]23)OCO4)cc(OC)c1O [Compound 12s]
-- reply 234 to 236 °C

-- ask Same thing, different compound: COc1cc([C@@H]2c3cc4c(cc3[C@@H](NC(=O)CNc3ccc(F)cc3)[C@H]3COC(=O)[C@H]23)OCO4)cc(OC)c1O [Compound 12p]
-- reply 159 to 162 °C

-- ask Same thing, different compound: COc1cc([C@@H]2c3cc4c(cc3[C@@H](NC(=O)CN3CCCCC3)[C@H]3COC(=O)[C@H]23)OCO4)cc(OC)c1OC [Compound 12c]
-- reply 229 to 231 °C

-- ask Same thing, different compound: COc1ccc(CCNCC(=O)N[C@@H]2c3cc4c(cc3[C@@H](c3cc(OC)c(O)c(OC)c3)[C@H]3C(=O)OC[C@@H]32)OCO4)cc1OC [Compound 12q]
-- reply 229 to 231 °C

-- ask Same thing, different compound: COc1cc([C@@H]2c3cc4c(cc3[C@@H](NC(=O)CNCc3ccccc3)[C@H]3COC(=O)[C@H]23)OCO4)cc(OC)c1OC [Compound 12o]
-- reply 111 to 113 °C

* * *

- Test system: HaCaT (human immortalized epidermal cells)
- assay.info: MTT growth inhibition assay, HaCaT normal cells
- Assay type: cell-based
- conditions.used: 48 h, read-out: IC50 (μM) HaCaT, MTT, 48 h, n = 3, normal cell line
measured.property: log10 IC50 (log10 of the value in µM)
Plainly stated, the numbers are log10 of IC50 given in µM.

These solved cases illustrate the format of a correct answer.
compound	log10 IC50
CCCCNCC(=O)N[C@@H]1c2cc3c(cc2[C@@H](c2cc(OC)c(O)c(OC)c2)[C@H]2C(=O)OC[C@@H]21)OCO3 [Compound 12h]	0.19
CCCNCC(=O)N[C@@H]1c2cc3c(cc2[C@@H](c2cc(OC)c(O)c(OC)c2)[C@H]2C(=O)OC[C@@H]21)OCO3 [Compound 12f]	0.41
COc1cc([C@@H]2c3cc4c(cc3[C@@H](NC(=O)CNCc3ccccc3)[C@H]3COC(=O)[C@H]23)OCO4)cc(OC)c1OC [Compound 12o]	0.33
COc1cc([C@@H]2c3cc4c(cc3[C@@H](NC(=O)CN3CCCC3)[C@H]3COC(=O)[C@H]23)OCO4)cc(OC)c1O [Compound 12a]	1.26
COc1cc([C@@H]2c3cc4c(cc3[C@@H](NC(=O)CN(CCO)CCO)[C@H]3COC(=O)[C@H]23)OCO4)cc(OC)c1O [Compound 12l]	0.62
COc1cc([C@@H]2c3cc4c(cc3[C@@H](NC(=O)CN3CCCCC3)[C@H]3COC(=O)[C@H]23)OCO4)cc(OC)c1O [Compound 12b]	0.71

-- ask Record request: log10 IC50 value, item COc1cc([C@@H]2c3cc4c(cc3[C@@H](NC(=O)CNCCc3ccc(O)cc3)[C@H]3COC(=O)[C@H]23)OCO4)cc(OC)c1O [Compound 12s]
-- reply 0.94

-- ask Same thing, different compound: COc1cc([C@@H]2c3cc4c(cc3[C@@H](NC(=O)CN3CCCCC3)[C@H]3COC(=O)[C@H]23)OCO4)cc(OC)c1OC [Compound 12c]
-- reply 0.28

-- ask Same thing, different compound: COc1ccc(CCNCC(=O)N[C@@H]2c3cc4c(cc3[C@@H](c3cc(OC)c(O)c(OC)c3)[C@H]3C(=O)OC[C@@H]32)OCO4)cc1OC [Compound 12q]
-- reply 0.57

Sourced from paper PMC6491884
